ASSAYED TARGET: Thromboxane synthase (Homo sapiens)
Construct: Human Platelet Thromboxane Synthase Assay; from tissue; host or cells: human platelets
Sequence (P24557 whole entry): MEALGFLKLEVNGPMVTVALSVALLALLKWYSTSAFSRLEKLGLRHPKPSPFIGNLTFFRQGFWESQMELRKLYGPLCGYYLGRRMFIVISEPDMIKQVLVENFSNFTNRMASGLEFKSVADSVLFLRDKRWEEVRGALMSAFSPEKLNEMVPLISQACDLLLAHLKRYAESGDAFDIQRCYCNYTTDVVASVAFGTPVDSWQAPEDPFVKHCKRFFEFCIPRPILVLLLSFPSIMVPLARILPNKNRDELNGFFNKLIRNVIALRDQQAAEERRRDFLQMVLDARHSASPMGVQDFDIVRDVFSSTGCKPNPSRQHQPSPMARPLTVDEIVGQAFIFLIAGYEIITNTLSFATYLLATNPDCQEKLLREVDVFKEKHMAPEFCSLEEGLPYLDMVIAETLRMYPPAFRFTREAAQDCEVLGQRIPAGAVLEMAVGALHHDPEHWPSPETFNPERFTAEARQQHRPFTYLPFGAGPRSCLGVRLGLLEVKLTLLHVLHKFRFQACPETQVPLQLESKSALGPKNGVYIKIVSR
TEST: Human platelet thromboxane synthase assay
Format: biochemical
CONDITION SET: 10 μM
QUANTITY: inhibition at 10 µM (%)

- MOLECULE: "COc1ccc(C(=O)NCc2cccnc2)cc1C(=O)NCc1cccnc1 [Picotamide]"
  OBSERVED: 53
- MOLECULE: "O=C(O)CC/C=C\\C[C@@H]1CO[C@H](c2ccccc2Cl)O[C@@H]1c1ccccc1O [Compound C]"
  OBSERVED: 43

a = O=C(O)CC/C=C\C[C@H]1CO[C@@H](c2ccccc2Cl)O[C@H]1c1ccccc1O [Compound B]
b = O=C(O)CC/C=C\CC1COC(c2ccccc2Cl)OC1c1ccccc1O (racemic) [Compound A]
-- ask I'm curious whether a or b has the smaller inhibition at 10 µM number. Which is it? Returns: label corresponding to the selected item.
-- reply b
(b: 16%, a: 25%)

Values were extracted from patent US20120142766A1.
